Molecular target: OGA (Homo sapiens)
Construct: HEK293 cells inducible for P301L mutant human Tau (isoform 2N4R) were established at Janssen; endogenous in cells; host or cells: HEK293 cells inducible for P301L mutant human Tau (2N4R)
Test: OGA cellular assay (ICC detection of O-GlcNAcylated proteins in HEK293 cells inducible for P301L mutant human Tau)
Assay type: cell-based
Details: HEK293 cells inducible for P301L mutant human Tau, 6 hours incubation; maximum = Thiamet G 200 uM
endpoint label: Cellular Emax (%)
A number alone suffices; assume %.

Task: Lab request: please report Cellular Emax (%) under test system OGA (Homo sapiens) for COc1cc(OC2CCN(C(C)c3ccc4c(n3)OCCO4)CC2)cc(C)n1 (single isomer, unassigned) [Compound 54]
Result: 83

Task: Given the entry COc1cc(OC2CCN(C(C)c3ccc4c(n3)OCCO4)CC2)cc(C)n1 (single isomer, unassigned) [Compound 53] , what Cellular Emax (%) was observed with OGA (Homo sapiens)?
Result: −8

Task: Item: Cc1cc(OC2CCN(C(C)c3ccc4c(n3)OCCO4)CC2)cc(C)n1 (single isomer, unassigned) [Compound 3] Test system: OGA (Homo sapiens) Read-out: Cellular Emax (%) Value: ?
Result: 83

Next:
Task: # value lookup — system OGA (Homo sapiens), readout Cellular Emax (%), item Cc1cc(OC2CCN(C(C)c3ccc4c(n3)OCCO4)CC2)cc(C)n1 (single isomer, unassigned) [Compound 2]
Result: −14

Task: Please state recorded Cellular Emax (%) (tested on OGA (Homo sapiens)) of COc1cc(OC2CCN(C(C)c3ccc4sc(C)nc4n3)CC2)cc(C)n1 (single isomer, unassigned) [Compound 24]
Result: 72

Task: Hi! What's the reported Cellular Emax (%) for COc1cc(OC2CCN(C(C)c3ccc4sc(C)nc4n3)CC2)cc(C)n1 (single isomer, unassigned) [Compound 23] on OGA (Homo sapiens)?
Result: −8
